MEASURED_ON: recombinant menin protein (Homo sapiens, UniProt O00255)
TEST_METHOD_NOTES: Bio-layer interferometry peptide-binding validation (Octet RED96)
Square brackets hold non-standard residues; d marks the D form. Peptide text beside a SMILES is read from it. * marks the point of attachment. Biotin = O=C1N[C@H]2[C@H](CS[C@H]2CCCCC(=O)*)N1; Arg(Me2s) = CN=C(NC)NCCC[C@H](N)C(=O)O; Cha = N[C@@H](CC1CCCCC1)C(=O)O; PEG4 = NCCOCCOCCOCCOCCC(=O)O; Pip = O=C(O)[C@@H]1CCCCN1
MEASURED_PROPERTY: pKd
For clarity, pKd is expressed as the negative log10 of concentration in mol/L.

pKd measured on CN=C(NC)NCCC[C@H](NC(=O)[C@@H](NC(=O)[C@@H]1CCCCN1C(=O)[C@H](CC1CCCCC1)NC(=O)[C@H](CCCCN)NC(=O)CCOCCOCCOCCOCCNC(=O)CCCC[C@@H]1SC[C@@H]2NC(=O)N[C@@H]21)C(C)C)C(=O)N1CCCC[C@H]1C(=O)N[C@@H](CCCNC(=N)N)C(N)=O [hit 6-1] ({Biotin-PEG4}-K[Cha][Pip]V[Arg(Me2s)][Pip]R-NH2) = 7.70

* * *

MEASURED_ON: recombinant menin protein (Homo sapiens, UniProt O00255)
TEST_METHOD_NOTES: Bio-layer interferometry peptide-binding validation (Octet RED96)
Square brackets hold non-standard residues; d marks the D form. Peptide text beside a SMILES is read from it. * marks the point of attachment. Biotin = O=C1N[C@H]2[C@H](CS[C@H]2CCCCC(=O)*)N1; Cha = N[C@@H](CC1CCCCC1)C(=O)O; Lys(Me) = CNCCCC[C@H](N)C(=O)O; PEG4 = NCCOCCOCCOCCOCCC(=O)O; Pip = O=C(O)[C@@H]1CCCCN1
So I've got a bunch of compounds here, and I need their pKd values.
For clarity, pKd is expressed as the negative log10 of concentration in mol/L.

pKd measured on CNCCCC[C@H](NC(=O)[C@@H](NC(=O)[C@@H]1CCCCN1C(=O)[C@H](CC1CCCCC1)NC(=O)[C@H](Cc1c[nH]cn1)NC(=O)CCOCCOCCOCCOCCNC(=O)CCCC[C@@H]1SC[C@@H]2NC(=O)N[C@@H]21)C(C)C)C(=O)N1CCCC[C@H]1C(=O)N[C@@H](CCCNC(=N)N)C(N)=O [hit 6-5] ({Biotin-PEG4}-H[Cha][Pip]V[Lys(Me)][Pip]R-NH2) = 6.96

pKd measured on C[C@H](NC(=O)[C@@H]1CCCN1C(=O)[C@H](Cc1ccccc1)NC(=O)[C@H](CCCNC(=N)N)NC(=O)[C@H](Cc1c[nH]c2ccccc12)NC(=O)CCOCCOCCOCCOCCNC(=O)CCCC[C@@H]1SC[C@@H]2NC(=O)N[C@@H]21)C(=O)N[C@@H](CCCNC(=N)N)C(=O)N1CCC[C@H]1C(=O)N[C@@H](CCCNC(=N)N)C(N)=O [tMBM2] ({Biotin-PEG4}-WRFPARPR-NH2) = 7.17

pKd measured on C[C@H](NC(=O)[C@@H]1CCCN1C(=O)[C@H](Cc1ccccc1)NC(=O)[C@H](CCCNC(=N)N)NC(=O)[C@H](Cc1c[nH]c2ccccc12)NC(=O)[C@@H](N)CCCNC(=N)N)C(=O)N[C@@H](CCCNC(=N)N)C(=O)N1CCC[C@H]1C(N)=O [MBM1, reference compound] (H-RWRFPARP-NH2) = 7.52

* * *

So I've got a bunch of compounds here, and I need their Kd values.
MEASURED_ON: recombinant menin protein (Homo sapiens, UniProt O00255)
Sequence (O00255 1-610): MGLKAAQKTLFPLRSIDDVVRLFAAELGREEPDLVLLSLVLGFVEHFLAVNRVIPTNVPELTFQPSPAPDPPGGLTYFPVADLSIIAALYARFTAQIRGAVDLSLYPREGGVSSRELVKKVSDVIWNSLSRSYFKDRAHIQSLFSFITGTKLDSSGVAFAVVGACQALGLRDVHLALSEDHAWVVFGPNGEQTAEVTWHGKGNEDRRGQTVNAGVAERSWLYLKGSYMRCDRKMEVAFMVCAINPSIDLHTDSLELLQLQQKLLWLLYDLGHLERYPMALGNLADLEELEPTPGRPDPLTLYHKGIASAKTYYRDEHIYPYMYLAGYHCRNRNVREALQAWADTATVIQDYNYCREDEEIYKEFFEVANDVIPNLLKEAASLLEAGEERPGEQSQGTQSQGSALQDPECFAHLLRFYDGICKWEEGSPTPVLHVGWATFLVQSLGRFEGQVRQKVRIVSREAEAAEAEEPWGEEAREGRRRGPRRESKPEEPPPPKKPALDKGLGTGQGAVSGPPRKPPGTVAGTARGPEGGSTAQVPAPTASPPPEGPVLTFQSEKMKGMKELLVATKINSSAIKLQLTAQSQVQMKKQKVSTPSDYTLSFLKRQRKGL
TEST_METHOD_NOTES: Bio-layer interferometry peptide-binding validation (Octet RED96)
Square brackets hold non-standard residues; d marks the D form. Peptide text beside a SMILES is read from it. * marks the point of attachment. Biotin = O=C1N[C@H]2[C@H](CS[C@H]2CCCCC(=O)*)N1; Phe(4-CH2NH2) = NCc1ccc(C[C@H](N)C(=O)O)cc1; hArg = N=C(N)NCCCC[C@H](N)C(=O)O; Cha = N[C@@H](CC1CCCCC1)C(=O)O; Lys(Me) = CNCCCC[C@H](N)C(=O)O; Cba = N[C@@H](CC1CCC1)C(=O)O; PEG4 = NCCOCCOCCOCCOCCC(=O)O; Pip = O=C(O)[C@@H]1CCCCN1; Dab = NCC[C@H](N)C(=O)O
The reply should be a number in nM, with the unit left off.

Kd measured on CC(C)[C@H](NC(=O)[C@@H]1CCCCN1C(=O)[C@H](CC1CCCCC1)NC(=O)[C@H](CCN)NC(=O)CCOCCOCCOCCOCCNC(=O)CCCC[C@@H]1SC[C@@H]2NC(=O)N[C@@H]21)C(=O)N[C@@H](CCCNC(=N)N)C(=O)N1CCCC[C@H]1C(=O)N[C@@H](Cc1ccc(CN)cc1)C(N)=O [hit 6-2] ({Biotin-PEG4}-[Dab][Cha][Pip]VR[Pip][Phe(4-CH2NH2)]-NH2) = 45

Kd measured on CNCCCC[C@H](NC(=O)[C@@H](NC(=O)[C@@H]1CCCCN1C(=O)[C@H](CC1CCCCC1)NC(=O)[C@H](CCCCN)NC(=O)CCOCCOCCOCCOCCNC(=O)CCCC[C@@H]1SC[C@@H]2NC(=O)N[C@@H]21)C(C)C)C(=O)N1CCCC[C@H]1C(=O)N[C@@H](CCCNC(=N)N)C(N)=O [hit 6-4] ({Biotin-PEG4}-K[Cha][Pip]V[Lys(Me)][Pip]R-NH2) = 87

Kd measured on C[C@H](NC(=O)[C@@H]1CCCN1C(=O)[C@H](Cc1ccccc1)NC(=O)[C@H](CCCNC(=N)N)NC(=O)[C@H](Cc1c[nH]c2ccccc12)NC(=O)[C@@H](N)CCCNC(=N)N)C(=O)N[C@@H](CCCNC(=N)N)C(=O)N1CCC[C@H]1C(=O)N[C@@H](CCCNC(=N)N)C(N)=O [tMBM1] (H-RWRFPARPR-NH2) = 14

Kd measured on CC(C)[C@H](NC(=O)[C@@H]1CCCCN1C(=O)[C@H](CC1CCCCC1)NC(=O)[C@H](CCN)NC(=O)CCOCCOCCOCCOCCNC(=O)CCCC[C@@H]1SC[C@@H]2NC(=O)N[C@@H]21)C(=O)N[C@@H](CCCCNC(=N)N)C(=O)N1CCCC[C@H]1C(=O)N[C@@H](CCCNC(=N)N)C(N)=O [hit 6-3] ({Biotin-PEG4}-[Dab][Cha][Pip]V[hArg][Pip]R-NH2) = 34

Kd measured on CC(C)[C@H](NC(=O)[C@@H]1CCCCN1C(=O)[C@H](CC1CCC1)NC(=O)[C@H](CCCNC(=N)N)NC(=O)CCOCCOCCOCCOCCNC(=O)CCCC[C@@H]1SC[C@@H]2NC(=O)N[C@@H]21)C(=O)N[C@@H](CCCNC(=N)N)C(=O)N1CCCC[C@H]1C(=O)N[C@@H](CCCNC(=N)N)C(N)=O [hit 1] ({Biotin-PEG4}-R[Cba][Pip]VR[Pip]R-NH2) = 34

Kd measured on CC(C)[C@H](NC(=O)[C@@H]1CCCCN1C(=O)[C@H](CC1CCCCC1)NC(=O)[C@H](CCCNC(=N)N)NC(=O)CCOCCOCCOCCOCCNC(=O)CCCC[C@@H]1SC[C@@H]2NC(=O)N[C@@H]21)C(=O)N[C@@H](CCCNC(=N)N)C(=O)N1CCCC[C@H]1C(=O)N[C@@H](CCCNC(=N)N)C(N)=O [hit 6] ({Biotin-PEG4}-R[Cha][Pip]VR[Pip]R-NH2) = 40
